These data points were gathered from patent US8642587B2.

Measured Ki accompanies every entry in the list below.
Target: human GlyT1c transporter (Homo sapiens, UniProt P48067)
Construct: membranes)
Sequence (P48067 whole entry): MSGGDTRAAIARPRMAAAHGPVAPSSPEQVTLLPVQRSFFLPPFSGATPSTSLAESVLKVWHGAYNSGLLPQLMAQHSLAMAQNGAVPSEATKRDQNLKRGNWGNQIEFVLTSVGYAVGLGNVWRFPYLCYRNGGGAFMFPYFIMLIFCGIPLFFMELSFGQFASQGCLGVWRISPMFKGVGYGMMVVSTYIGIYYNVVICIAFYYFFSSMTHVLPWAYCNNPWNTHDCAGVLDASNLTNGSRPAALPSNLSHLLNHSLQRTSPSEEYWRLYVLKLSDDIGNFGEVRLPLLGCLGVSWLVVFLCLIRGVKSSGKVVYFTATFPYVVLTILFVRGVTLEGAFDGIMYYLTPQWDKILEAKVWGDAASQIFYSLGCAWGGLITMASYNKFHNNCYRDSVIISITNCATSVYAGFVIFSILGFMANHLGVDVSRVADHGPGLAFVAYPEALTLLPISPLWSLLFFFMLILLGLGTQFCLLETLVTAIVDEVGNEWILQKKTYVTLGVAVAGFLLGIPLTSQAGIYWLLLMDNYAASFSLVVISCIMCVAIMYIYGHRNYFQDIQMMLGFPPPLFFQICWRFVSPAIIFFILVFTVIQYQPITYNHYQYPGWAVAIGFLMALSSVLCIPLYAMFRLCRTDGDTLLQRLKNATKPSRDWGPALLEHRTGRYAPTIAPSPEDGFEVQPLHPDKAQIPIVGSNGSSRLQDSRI
Assay: Radioligand binding assay using recombinant CHO cell membranes expressing human GlyT1
Settings: values given as bounds, read-out: radioligand binding K^iapp
Where a name gives a salt, the structure may show the parent alone.

In the examples that follow, each entry is paired with its recorded Ki.
[[record]]
molecule = "O=S(=O)(NCCn1cc2c(n1)C(C1(c3ccc(Cl)cc3)CCC1)NCC2)c1cccnc1 (stereo not drawn) [Example 9.12, dihydrochloride]"
measured_endpoint = "Ki"
value_reported = "≤ 1000 nM"

[[record]]
molecule = "CCS(=O)(=O)NCCn1cc2c(n1)C(C1(c3ccc(Cl)cc3)CCC1)NCC2 (stereo not drawn) [Example 9.2, hydrochloride]"
measured_endpoint = "Ki"
value_reported = "≤ 10000 nM"


Consider the record given below.
query: I am curious: what Ki value has been reported for Cn1cc(S(=O)(=O)NCCn2cc3c(n2)C(C2(c4ccc(Cl)cc4)CCC2)NCC3)cn1 (stereo not drawn) [Example 9.6, hydrochloride] ?
result: ≤ 1000 nM
